Test: Cmax in Sprague-Dawley rat at 10 mg/kg, po by LC-MS/MS analysis
Format: ADME, organism-based
Set-up: dose 10 mg/kg, route oral
Settings: in vivo

| Smiles data | Cmax [ng/mL] |
| --- | --- |
| Cc1ccc(C(C)C)cc1NC(=O)Cn1c(Cc2c(Cl)cccc2Cl)nc2ccccc21 | 70 |

* * *

Assay: Tmax in Sprague-Dawley rat at 10 mg/kg, po by LC-MS/MS analysis
Type: ADME, organism-based
Conditions: in vivo

| Smiles data | Tmax [min] |
| --- | --- |
| Cc1ccc(C(C)C)cc1NC(=O)Cn1c(Cc2c(Cl)cccc2Cl)nc2ccccc21 | 33 |
